All values here come from ChEMBL document CHEMBL2375348.

- Tested on: HL-60
- Assay name: Inhibition of cholesterol biosynthesis in human HL60 cells at 1 uM
- Type: functional
Parameter: inhibition at 1 µM. Scope: all listed entries.

Field: example entries. Status: answers known.
[[record]]
molecule = "C=CCN(C)CCCCCCOc1ccc(C(=O)c2ccc(Br)cc2)c(F)c1"
result = "> 90%"

[[record]]
molecule = "CN(C)Cc1ccc(C2CCC(N(C)C(=O)c3ccc(Cl)cc3)CC2)cc1 (centres undefined)"
result = "60%"

[[record]]
molecule = "C=CCN(C)CCCC1=C2CC[C@H]([C@H](C)CCCC(C)C)[C@@]2(C)CCC1"
result = "> 90%"


Query: Data request, read-out inhibition at 1 µM, for `CC(C)CCC[C@@H](C)[C@H]1CCC2=C(CCCN(C)C)CCC[C@@]21C`
Response: > 90%
